Quick list: CDMF75 IC15 per entry.
Biological target: bovine cardiac myofibrils (full-length cardiac myosin ATPase in the native sarcomere) (Bos taurus (Bovine), UniProt Q9BE39)
Sequence (Q9BE39 whole entry): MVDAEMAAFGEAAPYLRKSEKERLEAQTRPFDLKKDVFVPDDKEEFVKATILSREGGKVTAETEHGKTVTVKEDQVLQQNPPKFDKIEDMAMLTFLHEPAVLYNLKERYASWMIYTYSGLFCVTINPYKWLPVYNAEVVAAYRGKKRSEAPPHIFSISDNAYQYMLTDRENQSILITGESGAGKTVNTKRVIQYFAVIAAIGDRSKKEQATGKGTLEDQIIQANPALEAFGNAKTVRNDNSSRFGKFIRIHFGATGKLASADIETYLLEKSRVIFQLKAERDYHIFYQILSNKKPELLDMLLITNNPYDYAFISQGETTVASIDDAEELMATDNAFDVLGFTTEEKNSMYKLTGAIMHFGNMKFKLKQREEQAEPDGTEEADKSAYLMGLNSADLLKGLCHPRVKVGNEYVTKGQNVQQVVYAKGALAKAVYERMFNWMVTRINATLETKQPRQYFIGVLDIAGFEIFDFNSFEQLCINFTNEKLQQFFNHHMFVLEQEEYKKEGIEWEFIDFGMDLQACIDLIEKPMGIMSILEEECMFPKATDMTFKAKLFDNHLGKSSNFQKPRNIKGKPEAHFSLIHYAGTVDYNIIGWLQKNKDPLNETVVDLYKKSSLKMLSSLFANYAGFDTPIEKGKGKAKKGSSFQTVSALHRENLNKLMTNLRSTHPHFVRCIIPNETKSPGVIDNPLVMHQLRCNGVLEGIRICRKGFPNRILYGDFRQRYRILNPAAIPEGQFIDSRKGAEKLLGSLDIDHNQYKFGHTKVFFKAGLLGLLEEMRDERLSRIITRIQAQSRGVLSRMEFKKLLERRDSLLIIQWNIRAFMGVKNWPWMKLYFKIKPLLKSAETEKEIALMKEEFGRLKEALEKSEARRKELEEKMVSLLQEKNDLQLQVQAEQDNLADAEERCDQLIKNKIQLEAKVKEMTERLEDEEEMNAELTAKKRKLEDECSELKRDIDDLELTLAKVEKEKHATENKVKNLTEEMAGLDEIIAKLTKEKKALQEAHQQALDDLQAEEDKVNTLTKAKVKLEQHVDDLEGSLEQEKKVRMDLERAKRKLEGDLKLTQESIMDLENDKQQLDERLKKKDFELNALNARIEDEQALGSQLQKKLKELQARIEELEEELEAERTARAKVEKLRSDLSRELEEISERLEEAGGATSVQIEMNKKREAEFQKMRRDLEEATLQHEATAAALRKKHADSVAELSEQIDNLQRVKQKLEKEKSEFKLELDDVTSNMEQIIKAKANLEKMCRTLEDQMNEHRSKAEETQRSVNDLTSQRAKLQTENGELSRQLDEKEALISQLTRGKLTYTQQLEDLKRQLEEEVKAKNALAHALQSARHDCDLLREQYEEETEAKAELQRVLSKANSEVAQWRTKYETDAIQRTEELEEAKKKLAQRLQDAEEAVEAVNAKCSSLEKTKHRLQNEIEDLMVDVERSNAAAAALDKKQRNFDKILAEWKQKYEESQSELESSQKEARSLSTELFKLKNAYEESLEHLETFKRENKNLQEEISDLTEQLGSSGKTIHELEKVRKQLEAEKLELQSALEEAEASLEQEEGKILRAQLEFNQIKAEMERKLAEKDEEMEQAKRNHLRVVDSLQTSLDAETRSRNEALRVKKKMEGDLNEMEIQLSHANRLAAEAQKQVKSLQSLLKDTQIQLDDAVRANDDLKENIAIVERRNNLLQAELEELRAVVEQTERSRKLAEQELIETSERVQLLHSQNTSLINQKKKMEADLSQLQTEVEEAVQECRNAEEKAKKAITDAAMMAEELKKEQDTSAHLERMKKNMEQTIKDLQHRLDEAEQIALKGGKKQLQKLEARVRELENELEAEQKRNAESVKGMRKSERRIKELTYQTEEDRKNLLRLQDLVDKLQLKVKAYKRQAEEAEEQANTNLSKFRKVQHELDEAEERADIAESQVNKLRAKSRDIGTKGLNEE
Sequence (P85100 whole entry partner): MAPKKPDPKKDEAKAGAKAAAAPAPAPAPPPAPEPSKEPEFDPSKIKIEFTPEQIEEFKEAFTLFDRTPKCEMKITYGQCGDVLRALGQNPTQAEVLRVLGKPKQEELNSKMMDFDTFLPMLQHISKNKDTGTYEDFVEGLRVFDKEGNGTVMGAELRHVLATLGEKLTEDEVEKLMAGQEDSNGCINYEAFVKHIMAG
Sequence (Q3SZE5 whole entry partner): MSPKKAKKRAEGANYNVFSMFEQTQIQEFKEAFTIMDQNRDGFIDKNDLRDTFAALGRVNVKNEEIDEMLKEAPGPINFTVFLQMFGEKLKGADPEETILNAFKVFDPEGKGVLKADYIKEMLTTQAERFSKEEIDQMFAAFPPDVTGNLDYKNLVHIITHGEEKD
Assay: Skinned bovine cardiac myofibril ATPase assay (PK/LDH-coupled)
Assay type: biochemical
Conditions: Ca2+ activating to 75% of maximal rate, concentration giving 15% inhibition
Supply the numeric figure in nM, leaving out any unit text.

// worked examples, CDMF75 IC15 included
Cn1nccc1C(=O)NC1COc2cc(-c3noc(C(F)F)n3)ccc21 (centres unmarked)	500
CCc1nc(-c2ccc3c(c2)CC[C@H]3NC(=O)c2cnn(C3CN(C(=O)NC)C3)c2)no1	4500
CCc1nc(-c2ccc3c(c2)OC[C@H]3NC(=O)N2CC[C@H](F)C2)no1	3400
CCc1nc(-c2ccc3c(c2)CC[C@H]3NC(=O)c2cnn(C[C@H](C)O)c2)no1	1200
[2H]C([2H])([2H])c1nc(-c2ccc3c(c2)CC[C@H]3NC(=O)OC)no1	700

Sample Cn1nnc(C(=O)NC2COc3cc(-c4noc(C5CC5)n4)ccc32)n1 (centres unmarked) — what was its CDMF75 IC15?
1900

Item CCc1nc(-c2ccc3c(c2)OC[C@H]3NC(=O)OCCO)no1 has what recorded CDMF75 IC15?
300

Tell me the measured CDMF75 IC15 of COCc1nc(-c2ccc3c(c2)CC[C@H]3NC(=O)c2cc(C)on2)no1 , please.
4400

Given CCc1nc(-c2ccc3c(c2)CC[C@H]3NC(=O)[C@H]2CCNC(=O)C2)no1 , state its recorded CDMF75 IC15.
2900
